Taken from ChEMBL document CHEMBL5584243.

Test system: MOLM-13
procedure_details: Antiproliferative activity against human MOLM-13 cells assessed as inhibition of cell growth incubated for 72 hrs by CellTiter-Glo assay
Type: functional, cell-based
condition_description: MOLM-13, 72 h
recorded_endpoint: IC50 (nM)

>>> meas_value("CCn1c(CO)nn(-c2cc3c(C(C)C)cn(-c4ccccc4C(F)(F)F)c(=O)c3cc2F)c1=O")
0.63
>>> meas_value("CCn1c(CO)nn(-c2cc3c(C(C)C)cn(-c4c(C)cccc4F)c(=O)c3cc2F)c1=O")
0.69
>>> meas_value("CCn1c(CO)nn(-c2cc3c(C(C)C)cn(-c4ccc(F)cc4C)c(=O)c3cc2F)c1=O")
0.67
>>> meas_value("CCn1c(CO)nn(-c2cc3c(C(C)C)cn(-c4cc(F)ccc4C)c(=O)c3cc2F)c1=O")
0.86
>>> meas_value("CCn1c(CO)nn(-c2cc3c(C(C)C)cn(-c4ccccc4C(F)F)c(=O)c3cc2F)c1=O")
0.56
>>> meas_value("CCn1c(CO)nn(-c2cc3c(C(C)C)cn(-c4ccccc4Cl)c(=O)c3cc2F)c1=O")
0.28
